src = PubChem BioAssay (NCI)

# Tested on: NCI/ADR-RES ovarian
# PROTOCOL_DETAILS: NCI tumour cell line growth inhibition, 48 h
# TGI annotations

C/C(=C/C(=O)Nn1c(Cc2ccccc2)n[nH]c1=O)C(=O)O :: > 100 µM
COC(=O)C1=C(O)C(C(=O)OC)[C@]2(O)[C@H](C(=O)OC)[C@H]1C[C@@H](c1c(Cl)cccc1Cl)[C@H]2C(=O)OC (stereo partly specified) :: 7.01 µM
CCc1ccc2nc(-c3ccc(O)cc3)sc2c1 :: 32.9 µM
CCN1CCN(c2nc3ccc([N+](=O)[O-])cc3nc2C(=O)c2ccccc2)CC1 :: 29.2 µM

Exercise: Fill in: TGI of `O=C(O)c1cnc2[nH]ccn2c1=O` is ___
Key: > 100 µM

Exercise: Which value of TGI has been reported for `COc1ccc2sc(-n3nc4ccccc4c3Nc3nc4ccc(OC)cc4s3)nc2c1` in the records?
Key: 10.4 µM

Exercise: // query TGI value for entry `COc1ccc(/C=C2\N=C(c3ccccc3)N(N=C3NC(=O)CC(=O)N3)C2=O)cc1`
Key: > 100 µM

Exercise: What value of measured TGI is listed for `COc1cc(/C=C/C(=O)c2ccc(NC(=O)CN3CCN(c4cc5c(cc4F)c(=O)c(C(=O)O)cn5C4CC4)CC3)cc2)cc(OC)c1OC` ?
Key: > 100 µM

Exercise: Query (compound): `O=C1c2ccccc2C(=O)c2c1ccc(C1C(=O)c3ccccc3C1=O)c2-c1c(C2C(=O)c3ccccc3C2=O)ccc2c1C(=O)c1ccccc1C2=O` ; field requested: TGI
Key: > 100 µM

* * *

# System: SF-268 CNS
# PROTOCOL_DETAILS: NCI tumour cell line growth inhibition, 48 h
READOUT_KIND: TGI

Past entries and their recorded results:
Nc1nc(-c2ccccc2)nc2c1[n+]([O-])c1ccccc1[n+]2[O-] :: > 100 µM
CN1c2ccccc2C(C)(C)C12C=Cc1cc(O)ccc1O2 (stereo not given) :: 10.5 µM
CCOC(=O)C(O)(NC(=O)c1ccccc1F)C(F)(F)F (stereo not given) :: > 100 µM
Cc1ccc(OC2CC(n3cnc4ncnc(Cl)c43)OC2Oc2ccc(C)cc2)cc1 (stereo not given) :: 50.1 µM
CN1C(=O)[C@@H]2[C@@H]3c4ccccc4N(S(=O)(=O)C(F)(F)F)[C@@H]3c3[nH]c4ccccc4c3[C@@H]2C1=O :: > 100 µM
CC(=O)c1ccc(NC(=O)C(=O)Nn2c(=S)[nH]c3ccccc3c2=O)cc1 :: > 100 µM
CC1OC2(CC(OCc3ccccc3)C1OCc1ccccc1)OCCO2 (stereo not given) :: > 100 µM
O=C1/C(=C/c2cccc(Br)c2)CSC/C1=C\c1cccc(Br)c1 :: 24.2 µM
CCOC(=O)c1ccc(C(=O)/C(C(C)=O)=C2\CCCN2C)n1C :: > 100 µM

API: the following record is the query input.
Exercise: Give the measured TGI of `COc1cc(OC)c(/C=C/c2cnc3ccccc3n2)c(OC)c1` .
Key: > 10 µM

* * *

# Tested on: OVCAR-5 ovarian
# PROTOCOL_DETAILS: NCI tumour cell line growth inhibition, 48 h
READOUT_KIND: TGI

Completed entries (count: 6):
CCCCCCCCCCCCOP(=O)(O)OCC(N)C(=O)O (stereo not given) :: > 100 µM
COC(=O)CCCC(=O)O :: > 100 µM
O=C1[C@@H]2[C@@H](c3ccccc3)[C@]2(Cl)C(=O)[C@H]2[C@H](c3ccccc3)[C@@]12Cl :: > 100 µM
C=C(Br)N(CC)CC :: > 100 µM
N=C(N)SCc1ccc(Cl)cc1Cl (tested in a mixture with another compound) :: 35.7 µM
O=c1[nH]c(Nc2cc(Cl)cc(Cl)c2)nc2nc[nH]c12 :: > 75 µM

In the following, a different compound is considered.
Exercise: Entry under review: CCOC(=O)C(Cl)(NC(=O)c1c(F)c(F)c(F)c(F)c1F)C(F)(F)F (stereo not given) . Reported TGI?
Key: > 100 µM

* * *

# System: TK-10 renal
# PROTOCOL_DETAILS: NCI tumour cell line growth inhibition, 48 h
Measured TGI of individual entries

CCOC(=O)c1c(N2CCCC2)[nH]c(=O)c(C(c2ccco2)c2c(O)c(C(=O)OCC)c(N3CCCC3)[nH]c2=O)c1O :: > 100 µM
CCOc1ccc(/C=N/[N+](C)(C)C)cc1OCC :: > 10 µM
CS(=O)(=O)N(N(CCCl)S(=O)(=O)c1ccccc1)S(C)(=O)=O :: > 100 µM

# next compound below
Exercise: Value wanted: TGI (TK-10 renal) of entry `COc1ccc2c(c1)n([O-])c1ccccc1[n+]2=O`
Key: > 100 µM

* * *

# TGI per entry
# Tested on: UACC-62 melanoma
# PROTOCOL_DETAILS: NCI tumour cell line growth inhibition, 48 h

# annotated cases, reported TGI shown
COc1ccc(Cn2cc3c(c2-c2ccc(OC)cc2)CCc2cnoc2-3)cc1 :: > 100 µM
COc1ccc(/C(C#N)=C/c2ccc(OC)c(OC)c2)cc1 :: > 100 µM
CCn1cc(C(=O)O)c(=O)c2cc3c(cc21)S(=O)(=O)CC3 :: > 100 µM
NC1CC2NC3CCCCC3NC2CC1N (configuration not stated) :: > 100 µM
c1ccc2c(c1)ncn2C1CCCCO1 (configuration not stated) :: > 100 µM

Exercise: Return reported TGI; argument: `O=C(O)c1cccc(N=Nc2c(S(=O)(=O)O)ccc3c2C(=O)c2ccccc2C3=O)c1O`
Key: > 100 µM

Exercise: Reported TGI, molecule `O=C1c2ccccc2C(=O)c2c1ccc(C1C(=O)c3ccccc3C1=O)c2-c1c(C2C(=O)c3ccccc3C2=O)ccc2c1C(=O)c1ccccc1C2=O` : ____
Key: > 100 µM

Exercise: Look at this molecule and give its reported TGI. CCCCS(=O)(=O)CCC(N)C(=O)O (configuration not stated)
Key: > 100 µM

Exercise: Recorded TGI for `N#C/C(=C\c1cc(Cl)cc(Cl)c1)c1ccccn1` , please?
Key: > 100 µM

Exercise: I'd like to know its TGI. The molecule in question is `O=C(Nc1nc2ncn(CCNCc3ccccc3)c2c(=O)[nH]1)c1ccccc1`
Key: > 100 µM

Exercise: Which TGI reading was recorded for the molecule COc1ccc(/C=c2\sc3n(c2=O)C(N)=C(C#N)C(c2ccc(OC)cc2)C=3c2nc3ccccc3[nH]2)cc1 (configuration not stated) ?
Key: > 100 µM

Exercise: For CC(=O)OCC1OC(SC2OC(COC(C)=O)C(OC(C)=O)C(OC(C)=O)C2OC(C)=O)C(OC(C)=O)C(OC(C)=O)C1OC(C)=O (configuration not stated) , what is its reported TGI?
Key: > 100 µM

* * *

Items are presented alongside their recorded TGI.
# Test system: MDA-N
# PROTOCOL_DETAILS: NCI tumour cell line growth inhibition, 48 h

CSc1c(C#N)c(N)nc2c(N=Nc3ccc(Cl)cc3)c(N)nn12 :: 23.4 µM
COc1ccc(/C=C2\N=C(c3ccccc3)N(N=C3NC(=O)CC(=O)N3)C2=O)cc1 :: > 100 µM

Exercise: Quick check: TGI of `Cn1c(-c2ccccc2)cc2c3ccsc3c3ccsc3c21` ?
Key: > 100 µM

* * *

# Test system: HCC-2998 colon
# PROTOCOL_DETAILS: NCI tumour cell line growth inhibition, 48 h
READOUT_KIND: TGI

Recorded results for 2 compounds are shown here.
Cn1c(-c2ccccc2)cc2c3ccsc3c3ccsc3c21 :: > 100 µM
CCN(C(=O)c1cc(F)ccc1Oc1cncnc1N1CC2(CCN(CC3CCC(NS(=O)(=O)CC)CC3)CC2)C1)C(C)C (centres undefined) :: > 100 µM

Exercise: Enter reported TGI observed with HCC-2998 colon for C[C@]1(CO)CCC[C@@]2(C)C1CC[C@H]1CC3C[C@]12CC[C@]3(C)O (some centres undefined)
Key: > 100 µM

Exercise: Hi! What's the reported TGI for `CCOc1ccc(/C=N/[N+](C)(C)C)cc1OCC` on HCC-2998 colon?
Key: > 10 µM

* * *

# Tested on: NCI-H522 lung
# PROTOCOL_DETAILS: NCI tumour cell line growth inhibition, 48 h
READOUT_KIND: TGI

Exercise: Reported TGI for `N#CCCC1(CCC#N)CCCCCCCCC(CCC#N)(CCC#N)C(=O)C1=O` : what is it?
Key: 88.2 µM

Exercise: Entry CCC(=O)c1c(NOC2OC(COC(C)=O)C(OC(C)=O)C(OC(C)=O)C2OC(C)=O)nc(OC)n(C)c1=O (configuration not stated) has what TGI?
Key: > 100 µM

Exercise: For the compound `O=C1/C(=C/c2ccc(Cl)cc2)N=C(c2ccccc2)N1CCc1cccs1` , what TGI is on record?
Key: 74 µM

Exercise: Which TGI is listed for COC1OC(COCc2ccc(Cl)cc2)C(OCc2ccc(Cl)cc2)C1N=[N+]=[N-] (configuration not stated) ?
Key: > 100 µM

Exercise: What measured TGI goes with `CCOC(=O)c1ccc(C(=O)/C(C(C)=O)=C2\CCCN2C)n1C` ?
Key: > 100 µM

Exercise: Which TGI value belongs to `CCOc1ccc(/C=N/[N+](C)(C)C)cc1OCC` ?
Key: > 10 µM

Exercise: What value of TGI has been recorded for this entry: `CC(=O)N(O)[C@@H]1CC[C@H](n2cnc3c(N)ncnc32)C1`
Key: > 100 µM
